Recorded melting point, one value per entry.

# Compound, melting point
rows = [
    ("O=C1OC(COc2ccccc2)CN1CCCOc1ccc(CC2SC(=O)N(C(c3ccccc3)(c3ccccc3)c3ccccc3)C2=O)cc1 (configuration not stated)", "70 to 73 °C"),
    ("CCCOc1nsc(NC(=O)C(C)C)c1C(N)=O", "153 to 154 °C"),
    ("O=C(NNC(c1ccccc1)(c1ccccc1)c1ccccc1)c1ccccc1", "130 to 131 °C"),
    ("CCCCOC(=O)NCCc1nc(-c2ccc(-c3ccccc3)cc2)c(C)[nH]1", "143 to 144 °C"),
    ("COc1cccc2cc(C(=O)Nc3ccc(-n4nc(C(F)(F)F)cc4C(F)(F)F)cc3)oc12", "109 to 110 °C"),
    ("CC(O)c1ccc(CCNS(=O)(=O)c2ccc(Br)cc2)cc1 (configuration not stated)", "125 to 127 °C"),
    ("N#Cc1ccc(OCCCCC(=O)O)cc1", "160 °C"),
    ("COC1=CCC2=C(CCC3C2CCC2(C)C3CCC2N(C)CCCN(C)C)C1 (configuration not stated)", "78 to 80 °C"),
    ("COC(=O)C(Oc1cc(OCc2ccccc2)ccc1C#N)c1ccccc1C (racemic)", "134 to 136 °C"),
    ("CC(C)C(NC(=O)OCc1ccccc1)C(=O)Nc1nncs1 (racemic)", "162 to 164 °C"),
    ("Cc1cc(SC2=C(O)CC(C3CCCC3)(C3CCCC3)OC2=O)c(C(C)(C)C)cc1OS(=O)(=O)c1cn(C)cn1", "143 to 145 °C"),
    ("COCCOc1cc(Cc2cnc(N)nc2N)cc2c1NCCC2", "149 to 151 °C"),
    ("Cc1cc(-c2ccc(Cl)cc2)nc(-n2cnc(-c3ccc(S(N)(=O)=O)s3)c2)n1", "281 °C"),
    ("CCCOc1ccc(S(=O)(=O)N2CCN(CC)CC2)cc1-c1nc2cc(N)c(N)cc2c(=O)[nH]1", "183 to 186 °C"),
    ("Oc1cc2c(cc1CNc1ccccc1)OCCC2", "135 to 137 °C"),
    ("CC(C)=CCOc1ccc(C(=O)C=Cc2ccc(C(C)(C)C)cc2)c(OCC(=O)O)c1", "136 to 139 °C"),
    ("CN(C(=O)OC(C)(C)C)c1cc(Sc2cc(C(C)(C)C)c(O)c(C(C)(C)C)c2)ccc1[N+](=O)[O-]", "140 to 141 °C"),
]

====

Each entry below carries its recorded melting point.
Reported Property: melting point

# Molecule, Value Observed
measured = [
    ("COc1ccc(C2CCCCC2)cc1-c1csc(NC(=O)N2CCN(C[C@@H]3CCCN(CCC(=O)O)C3)CC2)n1", "144 °C"),
    ("COc1ccccc1OCC(O)CN1CCC(=O)CC1 (stereo not given)", "77 to 78 °C"),
    ("CCCCCC(O)CCCN(Cc1cccc(C=CC(=O)O)c1)S(C)(=O)=O (stereo not given)", "105 °C"),
    ("COC(=O)C1CCC2C3CCC4CC(O)C(OC)CC4(C)C3C(=O)CC12C (stereo not given)", "170 to 182 °C"),
    ("COc1ccc(C(=O)c2c(N)sc3c2CN(C(=O)OCc2ccccc2)C3)cc1OC", "195 to 196 °C"),
    ("O=C(O)C(Cc1ccc2c(c1)OCO2)Cc1ccc2c(c1)OCO2", "191 to 193 °C"),
    ("COC1=CC(=O)C2CC=CCC2C1=O (stereo not given)", "120 to 122 °C"),
    ("COc1ccc(Cc2ccc3[nH]c4cnn(C)c4c(=O)c3c2)cc1", "248 to 249 °C"),
    ("O=C(O)c1cc(Cl)c(Oc2ccc(O)cc2)c(Cl)c1", "163 to 165 °C"),
    ("COC(=O)CCCCOc1ccc2nc3[nH]c(=O)n(C)c3cc2c1", "223 to 225 °C"),
    ("Cc1c(SCCCCSCCn2c([N+](=O)[O-])cnc2C)ccnc1CSc1nc2ccccc2[nH]1", "160 to 162 °C"),
    ("CS(=O)(=O)c1ccc(-c2cc(-n3ccc(C(F)(F)F)n3)c3ccccc3n2)cc1", "194 to 196 °C"),
    ("Cc1cc(-c2cn(-c3cccc(OCCCl)c3)c3ncnc(N)c23)cc(C)c1OCc1ccccc1", "188 to 190 °C"),
    ("ClCCOc1ccccc1OCCCl", "55 to 56.5 °C"),
    ("CCC(=O)c1ccc(OCCCCl)cc1", "41 to 43 °C"),
    ("C=C(C)C1CCC2(C(=O)O)CCC3(C)C(CCC4C5(C)CCC(O)C(C)(CO)C5CCC43C)C12 (stereo not given)", "258 to 259 °C"),
    ("Cc1nc(-c2ccccc2)nc(NCC(=O)N(C)c2ccccc2)c1Br", "160 to 162 °C"),
    ("CCCCCCCCCCCCNC(=O)Nc1sc(C(=O)O)c(C)c1C(=O)OC(C)(C)C", "187 to 188 °C"),
    ("COc1cc(OC)cc(N2CCN(C(=S)Nc3cc4c(nc3OC)CCC4)CC2)c1", "169 to 170 °C"),
    ("CN(C)C(=NCCN1CCC(C(=O)c2ccc(F)cc2)CC1)NC#N", "139 to 141 °C"),
    ("CC(C)(C)OC(=O)Nc1ccc(-c2cccc(F)c2)cc1N", "125 to 128 °C"),
    ("CCCCOc1c(CO)n(CC(C)(C)C)c(=O)c2cc(F)ccc12", "149 to 150 °C"),
    ("COc1ccc(N2C(=O)C(O[Si](C(C)C)(C(C)C)C(C)C)C2c2ccco2)cc1 (stereo not given)", "109 to 110 °C"),
    ("Cc1ccccc1CNCCc1ccc(NC(=N)c2cccs2)cc1", "105 to 106 °C"),
    ("COc1cn(-c2ccc(-c3ncco3)cc2F)nc(-c2ccnn2-c2ccccc2)c1=O", "223 to 225 °C"),
    ("CC(C)NCC(O)c1cnc(N)c(Cl)c1 (stereo not given)", "146 °C"),
    ("Cn1c(C(F)(F)F)cc(=O)n(-c2c(F)cc(Cl)c3[nH]c(=O)oc23)c1=O", "67 to 71 °C"),
    ("CCCCCCCCCCCCN(CCCCCCCCCCCC)c1ccccc1C1=c2ccc(=C3C(=O)c4ccccc4C3=O)cc2OC1=O", "155 °C"),
    ("C#CCC(O)(Cn1cncn1)c1ccc(Oc2ccc(Cl)cc2)cc1Cl (stereo not given)", "124 °C"),
    ("CC(C)c1cccc(C(C)C)c1NC(=O)NCC1c2ccccc2-c2ccccc21", "217 to 218 °C"),
]

====

# Compound, melting point
records = [
    ("CCCCc1nc(CCNC(=O)OC(C)(C)C)c[nH]1", "118 to 120 °C"),
    ("N#Cc1c(OCC(F)(F)F)nc(N)nc1N1CCc2ccccc2CC1", "145 to 147 °C"),
    ("CCON=C(CC)C1=C(O)CC(c2ccc3c(c2)N(COC)C(=O)CO3)CC1=O (stereo unspecified)", "101 to 103 °C"),
    ("ClC(Cl)=Cc1ccc(OCc2ccccc2)cc1", "74.5 to 76.5 °C"),
    ("CC12CCC3c4ccc(O)cc4C(=O)C(Sc4ccc(O)cc4)C3C1CCC2O (stereo unspecified)", "120 to 124 °C"),
    ("CC(O)c1ccc(Oc2ccc(NC(=O)Nc3cc(C(C)(C)C)on3)cc2)cc1 (stereo unspecified)", "80 to 85 °C"),
    ("Cn1cnc(COc2nn3c(-c4ccon4)nnc3c3ccccc23)c1", "191 to 192 °C"),
    ("Cc1sc(N)nc1-c1ccc2c(c1)CC(=O)N2", "> 250 °C"),
    ("CCOC(=O)C(C)OCc1cc2cc(Cl)ccc2n1S(=O)(=O)c1cc(OC)ccc1OC (stereo unspecified)", "118 to 120 °C"),
    ("COc1ccc(-c2c(C(C)=O)c(Cn3cncn3)nc3cc(OC)c(OC)cc23)cc1OC", "180 to 181 °C"),
    ("Brc1cccc2c1Cc1ccccc1-2", "102 to 103 °C"),
]

====

Listing: melting point of selected compounds

# Compound, melting point
records = [
    ("FC(F)=C(F)CCCCSc1nnc(-c2ccc(C(F)(F)F)cc2)o1", "40 °C"),
    ("O=C(c1ccc(F)cc1)c1cc(Cl)nnc1Cl", "71.1 to 72.6 °C"),
    ("Nc1ccc(-c2noc3cc(F)ccc23)cc1[N+](=O)[O-]", "239 °C"),
    ("Cc1ccc(NCC2CCN(C3CCCCC3)CC2)c(C(=O)Nc2ccc(Cl)cn2)c1", "179 to 182 °C"),
    ("Cc1cc(Cl)nnc1-c1ccc(Br)cc1", "197 to 200 °C"),
    ("CCON(Cc1ccc(F)cc1)C(=O)C1=C(O)C(=O)N(C)C1", "113 to 114 °C"),
    ("COC(=O)CCCC1C(=S)Nc2ccccc21 (stereo not given)", "132 to 134 °C"),
    ("Clc1ccc2c(c1)N(c1ncnc3cc(Cl)ccc13)CC2", "189 °C"),
    ("COc1ccc2c(c1)CCN1C[C@H]3CCCN[C@H]3C[C@@H]21", "125 to 127 °C"),
    ("CCC1C(C)=NN=C(c2ccc(O)c(OC)c2)c2cc(OC)c(O)cc21 (stereo not given)", "210 to 212 °C"),
    ("COc1ccc(N2CCN(c3c(C)c(C)c4c(c3C)C(N3CCCc5ccccc53)C(C)(C)O4)CC2)cc1 (stereo not given)", "188 to 190 °C"),
    ("CCc1ccc(C(=O)C=CN(C)C)cc1", "80 to 81 °C"),
    ("O=C(O)CC1c2ccccc2CCc2cc(Cl)ccc21 (stereo not given)", "142 to 146 °C"),
    ("CSc1ccc2c(c1)N(CCCN1CCC(C(O)F)CC1c1ccccc1)c1ccccc1S2 (stereo not given)", "60 °C"),
    ("O=c1c2c(Cc3ccccc3)n[nH]c2c2cccnc2n1-c1cccc(F)c1", "298 to 299 °C"),
    ("O=C1N(c2cc(Cl)nc(Cl)c2)C(=O)C2(Cc3ccc(O)cc3)CCCN12 (stereo not given)", "165 °C"),
    ("COc1c(S(N)(=O)=O)c(C)nn1C", "144 to 146 °C"),
    ("c1ccc(-n2cc3c(n2)-n2cccc2C3(Cc2ccncc2)Cc2ccncc2)cc1", "169 to 170 °C"),
    ("O=C1NC(=O)c2c1c(-c1ccccc1)cc1c2c2cc(O)ccc2n1CCN1CCOCC1", "260 to 262 °C"),
    ("NC(=O)Cc1ccc2c(c1)C(=O)Cc1cccnc1O2", "214 to 217 °C"),
    ("CC(C)c1cc2c(c(C(C)C)c1)Oc1ccc(C(N)=O)cc1N(CCN(C)C)C2=O", "223 to 225 °C"),
    ("Cc1cccc(CN2CCN(C(c3ccc(Cl)cc3)c3cccc(OCC(=O)O)c3)CC2)c1 (stereo not given)", "114 to 120 °C"),
    ("CNC(=S)NCCS(=O)Cc1nc[nH]c1C (stereo not given)", "139 to 140 °C"),
    ("CCOC(=O)c1sc(=O)[nH]c1C(Cl)(Cl)Cl", "109 to 110 °C"),
    ("CC(C)(C)OC(=O)N1CCC(c2ccc3nc(-c4ccc(S(C)(=O)=O)cc4F)oc3c2)CC1", "166 to 169 °C"),
    ("CCOC(=O)c1csc(Nc2ccc(F)cc2)n1", "133 to 136 °C"),
    ("O=C1C2C=CCCC2C(=O)N1CCO (stereo not given)", "48 to 51 °C"),
    ("Cc1ncc(C=S)c(Nc2ccccc2)n1", "106 °C"),
    ("Cc1nc(COc2ccc3nc(N)c4nc5n(c4c3c2)C(C)COC5)cs1 (stereo not given)", "105 to 107 °C"),
    ("CCCn1c(C)nn(-c2ccc([N+](=O)[O-])cc2)c1=O", "125 °C"),
    ("CC(=O)OCC(=O)Nc1nc2c(Cl)cccc2s1", "205 to 207 °C"),
    ("O=C(CCc1cccnc1)c1ccccc1", "86 to 87 °C"),
    ("CCCC(c1ccc(C(=O)O)cc1OCc1ccc(Br)cc1)n1ccnc1 (stereo not given)", "155 to 158 °C"),
    ("CN(C)C(c1cccc(F)c1)C1CCC(C=O)CC1 (stereo not given)", "40 to 43 °C"),
    ("N#CC1=C(c2ccccc2)Nc2n[nH]cc2C1c1cccc(F)c1F (stereo not given)", "165 °C"),
]

The measured values listed here are drawn from a melting point compilation (Tetko et al.; mined from patent text by program, amines drawn as free bases though some values may be those of a salt).
